# TESTED SYSTEM: T1, human CD39 (full length, on cells) (human, UniProt P49961 1-510)
# T1 sequence: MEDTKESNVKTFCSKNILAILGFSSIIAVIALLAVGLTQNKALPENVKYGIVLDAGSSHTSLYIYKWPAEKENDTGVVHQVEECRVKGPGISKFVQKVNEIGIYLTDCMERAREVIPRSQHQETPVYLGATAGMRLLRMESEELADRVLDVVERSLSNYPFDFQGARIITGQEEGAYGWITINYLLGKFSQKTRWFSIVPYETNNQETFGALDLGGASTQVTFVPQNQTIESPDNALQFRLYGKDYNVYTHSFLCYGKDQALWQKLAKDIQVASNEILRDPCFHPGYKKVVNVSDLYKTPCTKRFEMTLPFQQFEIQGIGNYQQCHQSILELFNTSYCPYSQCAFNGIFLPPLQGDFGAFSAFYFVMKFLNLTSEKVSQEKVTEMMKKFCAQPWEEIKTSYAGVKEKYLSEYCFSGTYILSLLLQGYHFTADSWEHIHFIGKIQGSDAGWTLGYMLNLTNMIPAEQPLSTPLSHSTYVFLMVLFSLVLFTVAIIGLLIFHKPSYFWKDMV
# EXPERIMENT DESCRIPTION: cell-based or functional assay
MEASURED METRIC: SK-MEL-28 cell based ATPase inhibition % at 10 nM (%)
Numeric answer only, unit % assumed.

Lookup: Quote SK-MEL-28 cell based ATPase inhibition % at 10 nM reported for mAb34 (antibody, V domains shown, mouse hybridoma antibody) VH: EIQVQQSGPELVKPGASVKVSCKASGYSFTDYNMYWVKQSHGKSLEWIGFIDPYNGYTSYNQKFKGKATLTIDKSSSTAFMHLNSLTSEDSAVYYCAIYGYDDAYYFDYWGQGTTLTVSS VL: QIVLTQSPAIMSASPGEKVTITCSATSSVSYMHWFRQKPGTSPKLWIYSTSNLASGVPARFSGSGSGTSYSLTISRMAAEDAATYYCQQRITYPFTFGSGTKLEIT please.
Found: 72

Lookup: Note down SK-MEL-28 cell based ATPase inhibition % at 10 nM recorded for mAb13 (antibody, V domains shown, mouse hybridoma antibody) VH: QIQLVQSGPELKKPGETVKISCKASGYTFTNYGMNWVKQAPGKGLRWMGLINTYTGEPTYADDFKDRFAFSLETSASTAFLQINNLKDEDMATYFCARKGIYYDYVWFFDVWGAGTTVTVSS VL: DIQMTQSPSSLSTSLGGKVSITCKASQDINRYIAWYQHKPGKGPRLLIHYTSTLLPGIPSRFSGSGSGRDYSFSISNLEPEDIATYFCLQYSNLLTFGGGTKLEIK
Found: 43

Lookup: Give SK-MEL-28 cell based ATPase inhibition % at 10 nM for the following binder: mAb35 (antibody, V domains shown, mouse hybridoma antibody) VH: EVRLQQSGAELVKPGASVKLSCTASGFNIEDTYVHWMKQRPEQGLEWIGRIDPAIDNSKYDPKFQGKATITAVSSSNTAYLQLSSLTSEDTAVYYCALYDGYNVYAMDYWGQGTSVTVSS VL: DIVMTQAAFSNPVTLGTSASISCRSSKNLLHSNGITYLYWYLQRPGQSPQLLIYRASTLASGVPNRFSGSESGTDFTLRISRVEAEDVGVYYCAQLLELPHTFGGGTKLEIK
Found: 56

Lookup: Consider the binder Antibody 9-8B (antibody, V domains shown) VH: QIQLVQSGPELKKPGETVKISCKASGYTFTHYGMNWVKQAPGKGLKWMGWINTYTGELTYADDFKGRFAFSLETSASTAYLQINNLKNEDTATYFCARRAYYRYDYVMDYWGQGTSVTVSS VL: DIVMTQSQKFMSTSVGDRVSVTCKASHNVGTNVAWYQQKPGQSPKALIYSASYRYSGVPGRFTGSGSGTDFTLTISNVQSEDLAEYFCHQYNNYPYTFGGGTKLEIK and give its recorded SK-MEL-28 cell based ATPase inhibition % at 10 nM.
Found: 21
